- assay-notes: collision cross section (TIMS, N2 drift gas) of the primary ion; higher = larger gas-phase ion size
- applied-conditions: ionization mode: ESI+; ion species: [M+H]+
Reported collision cross section values for a set of compounds
Quick note: number first, unit second.

These solved cases illustrate the format of a correct answer.
1) Cc1cc(=O)[nH]c(C(C)C)n1 [2-Isopropyl-6-methyl-pyrimidin-4-ol]
131.58 Å²
2) CC(C)NCC(O)COc1ccc(COCCOC(C)C)cc1 (stereo not given) [Bisoprolol]
191.63 Å²
3) CCCCCCCCCCCCCC[N+](C)(C)[O-] [N,N-Dimethyltetradecylamine-N-oxide]
184.89 Å²

Give the measured collision cross section of Nc1ccc2nc3c(N)cccc3nc2c1 [1,7-Diaminophenazine] .
143.6 Å²

Another compound to check: CN[C@H]1CC[C@@H](c2ccc(Cl)c(Cl)c2)c2ccccc21 [Sertraline]
168.55 Å²
